target: Receptor tyrosine-protein kinase erbB-2 (Homo sapiens, UniProt P04626); assay: Inhibition of C-terminal His6-tagged HER2 (703 to 1029 residues) (unknown origin) expressed in Sf9 insect cells using TK as substrate preincubated for 30 mins followed by substrate addition and measured after 60 mins in presence of XL665-labeled streptavidin by HTRF assay
Sequence (P04626 whole entry, the tested form may be a part): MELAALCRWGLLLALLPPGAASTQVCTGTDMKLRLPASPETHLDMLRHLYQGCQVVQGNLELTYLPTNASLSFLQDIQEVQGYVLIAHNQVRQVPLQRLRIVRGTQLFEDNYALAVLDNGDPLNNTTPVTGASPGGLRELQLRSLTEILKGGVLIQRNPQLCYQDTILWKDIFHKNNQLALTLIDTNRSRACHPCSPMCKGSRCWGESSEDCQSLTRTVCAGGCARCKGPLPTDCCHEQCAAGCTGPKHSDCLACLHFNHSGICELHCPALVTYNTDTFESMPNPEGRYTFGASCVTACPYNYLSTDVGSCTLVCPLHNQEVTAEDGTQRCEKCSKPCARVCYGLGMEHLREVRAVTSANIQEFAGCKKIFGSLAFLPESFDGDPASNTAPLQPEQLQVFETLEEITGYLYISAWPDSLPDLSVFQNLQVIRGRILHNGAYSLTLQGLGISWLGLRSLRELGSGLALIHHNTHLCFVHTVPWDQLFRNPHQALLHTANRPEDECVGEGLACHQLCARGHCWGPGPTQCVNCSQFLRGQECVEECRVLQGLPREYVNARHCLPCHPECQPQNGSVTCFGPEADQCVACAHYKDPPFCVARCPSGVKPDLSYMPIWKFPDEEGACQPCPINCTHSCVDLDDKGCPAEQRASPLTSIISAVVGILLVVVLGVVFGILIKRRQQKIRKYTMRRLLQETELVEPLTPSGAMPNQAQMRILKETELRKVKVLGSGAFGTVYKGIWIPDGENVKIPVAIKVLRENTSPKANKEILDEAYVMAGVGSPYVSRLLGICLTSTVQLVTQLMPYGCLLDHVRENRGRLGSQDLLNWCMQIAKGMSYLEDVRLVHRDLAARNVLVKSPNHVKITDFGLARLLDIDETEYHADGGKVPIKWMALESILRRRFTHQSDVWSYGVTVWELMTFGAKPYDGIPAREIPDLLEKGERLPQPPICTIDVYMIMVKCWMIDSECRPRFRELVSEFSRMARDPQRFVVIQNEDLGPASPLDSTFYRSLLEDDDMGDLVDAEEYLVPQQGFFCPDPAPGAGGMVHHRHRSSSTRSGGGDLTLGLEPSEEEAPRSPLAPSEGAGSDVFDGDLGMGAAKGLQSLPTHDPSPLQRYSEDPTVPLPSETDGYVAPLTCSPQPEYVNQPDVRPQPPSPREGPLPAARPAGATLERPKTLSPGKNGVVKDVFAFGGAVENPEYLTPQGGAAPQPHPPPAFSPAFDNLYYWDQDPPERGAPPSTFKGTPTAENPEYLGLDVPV
readout-type: pIC50
One number for each entry, as −log10 of the molar value.

compound	system-under-test	readout-type	observed-measurement
C=CC(=O)Nc1cccc(-c2c[nH]c3ncnc(Nc4ccc(OCc5ccccn5)c(Cl)c4)c23)c1	Receptor tyrosine-protein kinase erbB-2 (Homo sapiens, UniProt P04626)	pIC50	7.96
C=CC(=O)Nc1cccc(-c2c(-c3ccc(N4CCN(C)CC4)cc3)[nH]c3ncnc(OC)c23)c1	Receptor tyrosine-protein kinase erbB-2 (Homo sapiens, UniProt P04626)	pIC50	7.30
C=CC(=O)Nc1cc(-c2c[nH]c3ncnc(Nc4ccc5[nH]c(Cc6ccccc6)nc5c4)c23)ccc1OCCO	Receptor tyrosine-protein kinase erbB-2 (Homo sapiens, UniProt P04626)	pIC50	6.73
C=CC(=O)Nc1cccc(-c2c(-c3ccc(N4CCN(C)CC4)cc3)[nH]c3ncnc(Nc4ccc(NC(=O)C(c5ccccc5)N5Cc6ccccc6C5=O)cc4)c23)c1 (stereo unspecified)	Receptor tyrosine-protein kinase erbB-2 (Homo sapiens, UniProt P04626)	pIC50	7.37
C=CC(=O)Nc1cccc(-c2c[nH]c3ncnc(Nc4ccc(CN5C(=O)c6ccccc6C5=O)cc4)c23)c1	Receptor tyrosine-protein kinase erbB-2 (Homo sapiens, UniProt P04626)	pIC50	7.96

Measured pIC50, "C=CC(=O)Nc1cc(-c2c[nH]c3ncnc(Nc4ccc5c(cnn5Cc5ccccc5)c4)c23)ccc1OCCO" : 7.85
